- Test system: Klebsiella aerogenes DSM 30053
- assay: fold change of Cadaverine concentration vs plate DMSO controls (fold change (ratio)); higher = more amine produced, active = hit call of the paper (significant change in both replicates, either direction)
- condition: incubation time: 27 h, anaerobic, 37 °C
Counter-ions that a name gives are not always drawn.
measured endpoint: fold change of Cadaverine concentration
Enter a number only.

// worked examples, fold change of Cadaverine concentration included
CCOc1nc2cccc(C(=O)OCc3oc(=O)oc3C)c2n1Cc1ccc(-c2ccccc2-c2noc(=O)[nH]2)cc1 [Azilsartan medoxomil] (20 µM) | 0.999
CO[C@@]12[C@H](COC(N)=O)C3=C(C(=O)C(C)=C(N)C3=O)N1C[C@@H]1N[C@@H]12 [Mitomycin C] (20 µM) | 0.995
COc1cc2c(cc1OC)C(=O)C(CC1CCN(Cc3ccccc3)CC1)C2 (configuration not stated) [Donepezil hydrochloride] (20 µM) | 1.21

stdin: Which fold change of Cadaverine concentration value belongs to Cn1c(=O)c2c(ncn2C)n(C)c1=O [Caffeine] (20 µM) ?
stdout: 0.987

stdin: Proceed to CCCCC1C(=O)N(c2ccccc2)N(c2ccc(O)cc2)C1=O (configuration not stated) [Oxyphenbutazone] (20 µM)
stdout: 1.14

stdin: Here is the next molecule: CC(=O)Nc1c(I)c(C(=O)N[C@H]2C(O)O[C@H](CO)[C@@H](O)[C@@H]2O)c(I)c(N(C)C(C)=O)c1I (some centres not stated) [Metrizamide] (20 µM)
stdout: 1

stdin: Now consider Cc1ncc([N+](=O)[O-])n1CC(O)CCl (configuration not stated) [Ornidazole] (20 µM) .
stdout: 1.02

stdin: And CC(C)(C)C(=O)C(Oc1ccc(Cl)cc1)n1ccnc1 (configuration not stated) [Climbazole] (20 µM) ?
stdout: 1.01

stdin: What do you have for CC(=O)Nc1ccccc1 [Acetanilide] (20 µM) ?
stdout: 1.01

stdin: Now give it for CC(C)(C)NCC(O)COc1cccc2c1CC(O)C(O)C2 (configuration not stated) [Nadolol] (20 µM) too.
stdout: 1

stdin: Next record, please: O=C(O)COC(=O)Cc1ccccc1Nc1c(Cl)cccc1Cl [Aceclofenac] (20 µM)
stdout: 1.01

stdin: Also check Nc1ccc(S(=O)(=O)Nc2cnc3ccccc3n2)cc1 [Sulfaquinoxaline sodium salt] (20 µM)
stdout: 0.991

stdin: Also, CNC(=C[N+](=O)[O-])NCCSCc1csc(CN(C)C)n1 [Nizatidine] (20 µM) please.
stdout: 1

stdin: Please do the same for CC(=O)OCC(CCn1cnc2cnc(N)nc21)COC(C)=O [Famciclovir] (20 µM) as well.
stdout: 0.979

stdin: Then CCN(CC)CCNC(=O)c1cc(Br)c(N)cc1OC [Bromopride] (20 µM) ?
stdout: 1.01

stdin: C=C1[C@H](CO)[C@@H](O)C[C@@H]1n1cnc2c(=O)[nH]c(N)nc21 [Entecavir] (20 µM) ?
stdout: 0.985

stdin: Can you check COc1ccc(C[C@@H]2c3cc(OC)c(OC)cc3CC[N@+]2(C)CCC(=O)OCCCCCOC(=O)CC[N@@+]2(C)CCc3cc(OC)c(OC)cc3[C@H]2Cc2ccc(OC)c(OC)c2)cc1OC [Cisatracurium besylate] (20 µM) next?
stdout: 1.07

stdin: Follow-up item: CC(=O)Nc1cccc(O)c1 [Metacetamol] (20 µM)
stdout: 0.988

stdin: Also, CC1(C)O[C@@H]2C[C@H]3[C@@H]4C[C@H](F)C5=CC(=O)CC[C@]5(C)[C@H]4[C@@H](O)C[C@]3(C)[C@]2(C(=O)CO)O1 [Flurandrenolide] (20 µM) please.
stdout: 1.04

stdin: # iterate: CCCCCCNC(=O)n1cc(F)c(=O)[nH]c1=O [Carmofur] (20 µM)
stdout: 0.974

stdin: Now give it for C[N+]1(C)CCC(=C(c2ccccc2)c2ccccc2)CC1 [Diphemanil methylsulfate] (20 µM) too.
stdout: 1.02

stdin: Thanks! And CC(=O)CCCCn1c(=O)c2c(ncn2C)n(C)c1=O [Pentoxifylline] (20 µM) ?
stdout: 1.02

stdin: Next record, please: CN(C)CCN(Cc1ccc(Cl)cc1)c1ccccn1 [Chloropyramine hydrochloride] (20 µM)
stdout: 0.994
